test target: recombinant human NK3 receptor (Homo sapiens, UniProt P29371)
Construct: expressed in transfected cells; host or cells: HEK293 cells (transient expression), membranes
Sequence (P29371 whole entry): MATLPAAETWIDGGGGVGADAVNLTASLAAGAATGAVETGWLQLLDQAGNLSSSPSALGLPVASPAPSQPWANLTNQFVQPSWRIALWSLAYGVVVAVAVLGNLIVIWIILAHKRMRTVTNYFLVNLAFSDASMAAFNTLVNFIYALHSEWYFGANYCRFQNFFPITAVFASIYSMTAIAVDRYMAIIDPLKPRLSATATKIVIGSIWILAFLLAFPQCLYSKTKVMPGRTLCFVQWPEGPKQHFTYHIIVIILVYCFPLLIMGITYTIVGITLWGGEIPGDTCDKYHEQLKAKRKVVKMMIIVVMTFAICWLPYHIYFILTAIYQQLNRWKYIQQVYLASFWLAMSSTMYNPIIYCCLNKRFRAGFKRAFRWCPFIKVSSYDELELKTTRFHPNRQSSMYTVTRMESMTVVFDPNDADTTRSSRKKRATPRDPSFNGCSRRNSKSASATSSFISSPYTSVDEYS
test protocol: [3H]SR142801 competition binding assay
test conditions: membranes from HEK293 cells transiently expressing hNK3; [3H]SR142801 at its KD; 75 min RT; read-out: Data [μM] (affinity constant Ki, hNK3 receptor binding)
measurement type: Ki (µM)

C[C@H](Oc1ccc(C#N)cn1)[C@H]1CN(C(=O)C2CCN(C(=O)C3(C)CC3)CC2)C[C@@H]1c1ccc(Cl)c(Cl)c1 (racemic) [Example 17]	0.0046
C[C@H](Oc1ccc(Cl)cn1)[C@H]1CN(C(=O)C2CCC(=O)CC2)C[C@@H]1c1ccc(Cl)c(Cl)c1 (racemic) [Example 12]	0.0092
C[C@H](Oc1ccc(C#N)cn1)[C@H]1CN(C(=O)[C@H]2CC[C@H](NC(=O)OC(C)(C)C)CC2)C[C@@H]1c1ccc(Cl)c(Cl)c1 (racemic) [Example 43]	0.007
C[C@H](Oc1ccc(Cl)cn1)[C@H]1CN(C(=O)C2CCN(C(=O)C3(C)CC3)CC2)C[C@@H]1c1ccc(F)cc1F (racemic) [Example 48]	0.0074

(a) C[C@H](Oc1ccc(C#N)cn1)[C@H]1CN(C(=O)C2CCN(C(=O)OC(C)(C)C)CC2)C[C@@H]1c1ccc(Cl)c(Cl)c1 (racemic) [Example 13]
(b) COC(=O)N[C@H]1CC[C@H](C(=O)N2C[C@H]([C@H](C)Oc3ccc(Cl)cn3)[C@@H](c3ccc(Cl)c(Cl)c3)C2)CC1 (racemic) [Example 5]
Of a and b , whose reported Ki is numerically smaller? Kindly state the label of the option you pick.
a
